# Target: T1, cynomolgus monkey CTLA4-his protein (Acro biosystems, Cat#CT4-C5227) (cynomolgus monkey, UniProt G7PL88 36-161)
# T1 construct: bought recombinant protein; also called Cynomolgus CTLA4-his; not shown: his tag
# T1 sequence: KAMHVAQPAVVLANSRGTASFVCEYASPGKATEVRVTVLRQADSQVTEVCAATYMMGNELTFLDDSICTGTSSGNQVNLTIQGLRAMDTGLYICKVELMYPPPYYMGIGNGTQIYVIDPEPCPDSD
# Assay: SPR, Biacore; antibody captured on anti-human IgG CM5 chip, CTLA4-his as analyte
Kd: recorded values
Answer with a number only, understood to be in nM.

See these solved cases before continuing.
Binder	Kd, nM
chimeric C1D1 anti-CTLA4 antibody (antibody, human IgG4 S228P, kappa, V domains shown, mouse variable domains on human IgG4/kappa, made in 293F cells) VH: EVKLDETGGGLVQPGRPLKLSCVASGFTFSDNWMNWVRQSPEKGLEWVAQIRNKPYNYETYYSDSVKGRFTISRDDSKSSVYLQMNNLRVEDMGIYYCTGGMDYWGQGTSVTVSS VL: DIQMTQSPASLSASVGETVTITCGASEIIYGALNWYQQKQGKSPQLLIYGATNLADGMSSRFSGSGSGRQYSLKISSLHPDDAATYYCQKILSPPPWTFGGGTKLEIKR	0.243
chimeric D1D5 anti-CTLA4 antibody (antibody, human IgG4 S228P, kappa, V domains shown, mouse variable domains on human IgG4/kappa, made in 293F cells) VH: EVKLVESGGGLVKPGGSLKLSCAASGFTFSDYGMAWVRQAPGKGPEWVAFISNLAYSVYYADTETGRFTISREDAKNTLYLEMSSLRSEDTAMYYCARSGLPYAMDYWGQGTSVTVSS VL: DIQMTQTTSSLSASLGDRVTISCRASQDISNYLNWYQQKPDGTVKLLIYYISRLHSGVPSRFSGSGSGTDFSLTISNLEQEDIATYFCQQGRMLPWTFGGGTRLEIKR	0.968
huC1D1-V8 (antibody, human IgG4 S228P, kappa, V domains shown, humanized IgG4/kappa; cell supernatant on Octet, purified antibody in Biacore, ELISA, FACS and the functional assay; also called hu CTLA4 C1D1-V8) VH: EVQLVESGGGLVQPGRSLRLSCTASGFTFSDNWMNWVRQAPGKGLEWVGQIRNKPYNYETYYSDSVKGRFTISRDDSKSIAYLQMNSLKTEDTAVYYCTGGMDYWGQGTTVTVSS VL: DIQMTQSPSSLSASVGDRVTITCGASEIIYGALNWYQQKPGKSPKLLIYGATNLADGVPSRFSGSGSGTDFTLTISSLQPEDVATYYCQKILSPPPWTFGGGTKVEIKR	7.49

The binder huD1D5-V9 (antibody, human IgG4 S228P, kappa, V domains shown, humanized IgG4/kappa; cell supernatant on Octet, purified antibody in Biacore, ELISA, FACS and the functional assay; also called hu CTLA4 D1D5-V9; huDID5-V9) VH: EVQLVESGGGLVKPGGSLRLSCAASGFTFSDYGMAWVRQAPGKGPEWVAFISNLAYSVYYADTETGRFTISRDDAKNSLYLQMNSLRAEDTAVYYCARSGLPYAMDYWGQGTTVTVSS VL: DIQMTQSPSSLSASVGDRVTITCRASQDISNYLNWYQQKPGKVPKLLIYYISRLHSGVPSRFSGSGSGTDFTLTISSLQPEDVATYYCQQGRMLPWTFGGGTKVEIKR showed Kd equal to 2.13
